Experiment: Cytotoxicity against human RPMI8226 cells after 48 hrs by SRB assay
Type: functional
Details: RPMI-8226, 48 h, read-out: LC50 (the source's name)
measured.attribute: CC50

- compound.structure: "Cc1nc2cc(Nc3nc(Nc4ccc(F)cc4)nc(N4CCCC4)n3)ccc2n1Cc1ccccc1"
  value.observed: "> 100 µM"
- compound.structure: "Cc1nc2cc(Nc3nc(Nc4ccc(F)cc4)nc(-c4ccc(Cl)cc4)n3)ccc2n1Cc1ccccc1"
  value.observed: "> 100 µM"
- compound.structure: "Cc1nc2ccc(Nc3nc(Cl)nc(Nc4ccc(F)cc4)n3)cc2n1Cc1ccccc1"
  value.observed: "> 100 µM"
- compound.structure: "Cc1nc2cc(Nc3nc(Nc4ccc(F)cc4)nc(-c4cccs4)n3)ccc2n1Cc1ccccc1"
  value.observed: "> 100 µM"
- compound.structure: "Cc1nc2ccc(Nc3nc(NCCN4CCOCC4)nc(Nc4ccc(F)cc4)n3)cc2n1Cc1ccccc1"
  value.observed: "55 µM"
- compound.structure: "Cc1nc2cc(Nc3nc(Nc4ccc(F)cc4)nc(N4CCN(C)CC4)n3)ccc2n1Cc1ccccc1"
  value.observed: "8.47 µM"
- compound.structure: "COc1ccc(-c2nc(Nc3ccc(F)cc3)nc(Nc3ccc4c(c3)nc(C)n4Cc3ccccc3)n2)cc1"
  value.observed: "> 100 µM"
